System: NCI-H460 lung
Run Description: NCI tumour cell line growth inhibition, 48 h
Attribute Measured: TGI

{"Compound": "O=C(N/N=C/c1ccc([N+](=O)[O-])cc1)c1cccc2nc3ccccc3nc12", "Reported": "> 64.4 µM"}
{"Compound": "C=CCOc1ccc(/C(N=Nc2ccccc2)=N/NC(=O)c2ccccc2)cc1OC", "Reported": "> 100 µM"}

Go through the list and state TGI for each entry.
1. Cc1nn(-c2ccccc2)c2c1CC(=O)Nc1ccccc1-2
2. C=CCOC1=C(OCC=C)C(C2COC(C)(C)O2)OC1=O (stereo not given)
3. COC(=O)c1cc(-c2cc(OC)c(OC)c(OC)c2)[nH]c1N/N=C/c1c(Cl)cccc1Cl
4. O=c1c2cc(Br)ccc2nc(-c2ccccc2Cl)n1NCC1(O)OCC(O)C(O)C1O (stereo not given)
5. C(=Nc1ccc(-c2cc(-c3ccccc3)nc3ccc4ccccc4c23)cc1)c1ccccc1
6. CCN(CCCN(CC)C(=O)Nc1ccccc1)C(=O)Nc1ccccc1
7. N#C/C(=C1\NN=C(N)C(c2ccc(Cl)cc2)=C1O)c1ccc(Cl)cc1

[A]
1. > 100 µM
2. > 100 µM
3. 18.3 µM
4. > 100 µM
5. > 100 µM
6. > 100 µM
7. > 100 µM

Recorded result, OCC(O)C(OC1OC(CO)C(O)C(O)C1O)c1nn(-c2ccccc2)c2nc3cc(Cl)c(Cl)cc3cc12 (stereo not given) , TGI: > 100 µM
